Data origin, for the record: patent US7678831B2

Assign melting point to each entry below.
The reply should contain only the number, in °C.

Exercise: Any idea what its melting point is? The compound is `O=C(O)[C@H](CCc1ccccc1)Oc1ccc(-c2cc3ccccc3o2)cc1`
Key: 198

Exercise: Any idea what its melting point is? The compound is O=C(O)C(CCc1ccccc1)Oc1ccc2oc3ccccc3c2c1 (stereo not drawn)
Key: 136

Exercise: Any idea what its melting point is? The compound is Cc1cc(OC(CCc2ccccc2)C(=O)O)cc(=O)o1 (stereo not drawn)
Key: 165

Exercise: Any idea what its melting point is? The compound is `O=C(O)[C@H](CCc1ccccc1)Oc1cccc(OCc2ccc3ccccc3n2)c1`
Key: 124
